biological target: T1, wild type human CD47 (Acro Biosystems, cat. no. CD7-H5227) (human, UniProt Q08722 19-139); assay: SPR, IgG captured, CD47 in flow; exp 4;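 also: rates fitted from SPR association and dissociation curves, KD estimated from them, the other target is a CD47 C33G mutein, used to obtain true monovalent affinity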
T1 construct: Bought protein used as SPR analyte; also called Human CD47 wt; wild-type CD47
T1 sequence (Q08722 19-139 limits assumed): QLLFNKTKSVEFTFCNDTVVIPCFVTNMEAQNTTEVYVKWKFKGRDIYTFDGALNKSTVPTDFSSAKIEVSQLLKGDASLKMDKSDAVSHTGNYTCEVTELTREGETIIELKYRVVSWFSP
Below, each of the binders is paired with its reported kon value.
measured_attribute: kon

• 108VH10 / 108VL10.M1 (antibody, V domains shown, 4D5-framework series; also called VH10 VL10.M1; straight-graft antibody) VH: EVQLVESGGGLVQPGGSLRLSCAASGYSFTHHWIHWVRQAPGKGLEWVAMIDPSDSETRLSQKFKDRFTISADTSKNTAYLQMNSLRAEDTAVYYCSRLGRYYFDYWGQGTLVTVSS VL: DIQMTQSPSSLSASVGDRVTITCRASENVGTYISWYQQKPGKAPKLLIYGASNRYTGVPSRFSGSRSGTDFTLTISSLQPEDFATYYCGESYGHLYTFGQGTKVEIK = 240000 M⁻¹ s⁻¹
• 108VH4.M4-VL1.M1 (antibody, V domains shown, also called original humanized 108C10A6 antibody) VH: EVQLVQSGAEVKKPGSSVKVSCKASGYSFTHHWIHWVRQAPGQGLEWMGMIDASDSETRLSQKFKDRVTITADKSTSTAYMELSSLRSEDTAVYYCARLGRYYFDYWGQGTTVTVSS VL: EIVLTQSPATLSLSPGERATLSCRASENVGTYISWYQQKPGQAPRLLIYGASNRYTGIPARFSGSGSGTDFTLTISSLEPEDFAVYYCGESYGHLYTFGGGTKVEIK = 1.1e+06 M⁻¹ s⁻¹
• 108VH10.Mr / 108VL10.Me (antibody, V domains shown, 4D5-framework series; constant regions not restated for this series; also called VH10.Mr VL10.Me) VH: EVQLVESGGGLVQPGGSLRLSCAASGFTFSHHWIHWVRQAPGKGLEWVAMIDASDSETRLVDSVKGRFTISADTSKNTAYLQMNSLRAEDTAVYYCSRLGRYYFDYWGQGTLVTVSS VL: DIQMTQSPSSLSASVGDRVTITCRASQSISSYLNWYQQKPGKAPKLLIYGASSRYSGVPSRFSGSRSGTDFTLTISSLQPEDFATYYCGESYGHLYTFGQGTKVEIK = 360000 M⁻¹ s⁻¹
• 108VH10.Mo / 108VL10.Me (antibody, V domains shown, 4D5-framework series; also called VH10.Mo VL10.Me) VH: EVQLVESGGGLVQPGGSLRLSCAASGFTFSHHWIHWVRQAPGKGLEWVAMIDASDSETRLSDSFKGRFTISADTSKNTAYLQMNSLRAEDTAVYYCSRLGRYYFDYWGQGTLVTVSS VL: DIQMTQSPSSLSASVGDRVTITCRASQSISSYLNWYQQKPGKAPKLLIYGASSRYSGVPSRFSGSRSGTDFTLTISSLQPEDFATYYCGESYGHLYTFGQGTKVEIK = 560000 M⁻¹ s⁻¹
